# System: Pseudomonas aeruginosa
# PROTOCOL_DESCRIPTION: Potency index, ratio of ciprofloxacin MIC to compound MIC for Pseudomonas aeruginosa RCMB 010043
# Assay type: functional
Each entry below lists one item and its recorded Ratio value.
Form: value (number only, do not type unit).

Asked: So what does the record say about Ratio for CCOC(=O)c1sc(/N=C2\NC(=O)/C(=C3/C(=O)N(C)c4ccccc43)S2)nc1C ?
Given back: 2

Asked: So what does the record say about Ratio for CCOC(=O)c1sc(/N=C2\NC(=O)/C(=C3/C(=O)N(C)c4ccc(Cl)cc43)S2)nc1C ?
Given back: 2

Asked: So what does the record say about Ratio for CCOC(=O)c1sc(/N=C2\NC(=O)/C(=C3/C(=O)N(Cc4ccccc4)c4ccccc43)S2)nc1C ?
Given back: 2

Asked: So what does the record say about Ratio for CC(=O)c1sc(/N=C2\NC(=O)/C(=C3/C(=O)N(Cc4ccccc4)c4ccc(Cl)cc43)S2)nc1C ?
Given back: 4

Asked: So what does the record say about Ratio for CCOC(=O)c1sc(/N=C2\NC(=O)/C(=C3/C(=O)Nc4ccc(Cl)cc43)S2)nc1C ?
Given back: 4

Asked: So what does the record say about Ratio for CC(=O)c1sc(/N=C2\NC(=O)/C(=C3/C(=O)N(C)c4ccccc43)S2)nc1C ?
Given back: 4

Asked: So what does the record say about Ratio for COc1ccc2c(c1)/C(=C1/S/C(=N/c3nc(C)c(C(C)=O)s3)NC1=O)C(=O)N2 ?
Given back: 2

Asked: So what does the record say about Ratio for CCOC(=O)c1sc(/N=C2\NC(=O)/C(=C3/C(=O)Nc4ccc(OC)cc43)S2)nc1C ?
Given back: 2

Asked: So what does the record say about Ratio for CCOC(=O)c1sc(/N=C2\NC(=O)/C(=C3/C(=O)N(Cc4ccccc4)c4ccc(Cl)cc43)S2)nc1C ?
Given back: 2

Asked: So what does the record say about Ratio for CC(=O)c1sc(/N=C2\NC(=O)/C(=C3/C(=O)Nc4ccc(Cl)cc43)S2)nc1C ?
Given back: 4

Asked: So what does the record say about Ratio for CCOC(=O)c1sc(/N=C2\NC(=O)/C(=C3/C(=O)Nc4ccccc43)S2)nc1C ?
Given back: 2

Asked: So what does the record say about Ratio for CC(=O)c1sc(/N=C2\NC(=O)/C(=C3/C(=O)N(C)c4ccc(Cl)cc43)S2)nc1C ?
Given back: 4

----------
Each entry below lists one item and its recorded selectivity ratio value.
# PROTOCOL_DESCRIPTION: Selectivity index, ratio of GI50 for mouse RAW264.7 cells to MIC for Mycobacterium aurum infected in mouse RAW264.7 cells
# Type: toxicity, cell-based
# RUN_PARAMETERS: read-out: Selectivity Index

Known results for compounds:
COMPOUND | selectivity ratio
CCOC(=O)c1sc(/N=C2\NC(=O)/C(=C3/C(=O)N(Cc4ccccc4)c4ccccc43)S2)nc1C | 2.5
CCOC(=O)c1sc(/N=C2\NC(=O)/C(=C3/C(=O)N(C)c4ccccc43)S2)nc1C | 2.5
CCOC(=O)c1sc(/N=C2\NC(=O)/C(=C3/C(=O)N(Cc4ccccc4)c4ccc(Cl)cc43)S2)nc1C | 1.25
CC(=O)c1sc(/N=C2\NC(=O)/C(=C3/C(=O)N(C)c4ccc(Cl)cc43)S2)nc1C | 5

Asked: So what does the record say about selectivity ratio for CCOC(=O)c1sc(/N=C2\NC(=O)/C(=C3/C(=O)Nc4ccc(Cl)cc43)S2)nc1C ?
Given back: < 0.625

Asked: So what does the record say about selectivity ratio for CCOC(=O)c1sc(/N=C2\NC(=O)/C(=C3/C(=O)Nc4ccccc43)S2)nc1C ?
Given back: 1.25

Asked: So what does the record say about selectivity ratio for CC(=O)c1sc(/N=C2\NC(=O)/C(=C3/C(=O)N(C)c4ccccc43)S2)nc1C ?
Given back: > 5

Asked: So what does the record say about selectivity ratio for CCOC(=O)c1sc(/N=C2\NC(=O)/C(=C3/C(=O)Nc4ccc(OC)cc43)S2)nc1C ?
Given back: < 0.312

----------
Each entry below lists one item and its recorded GI50 value.
# PROTOCOL_DESCRIPTION: Cytotoxicity against mouse RAW264.7 cells
# Assay type: cell-based
Note: unit µg/mL is implicit; provide only the numeric part.

Known results for compounds:
COMPOUND | GI50 (µg/mL)
CC(=O)c1sc(/N=C2\NC(=O)/C(=C3/C(=O)N(C)c4ccc(Cl)cc43)S2)nc1C | 125
CCOC(=O)c1sc(/N=C2\NC(=O)/C(=C3/C(=O)N(Cc4ccccc4)c4ccccc43)S2)nc1C | 500
CCOC(=O)c1sc(/N=C2\NC(=O)/C(=C3/C(=O)N(C)c4ccccc43)S2)nc1C | 500

Asked: So what does the record say about GI50 for CCOC(=O)c1sc(/N=C2\NC(=O)/C(=C3/C(=O)N(Cc4ccccc4)c4ccc(Cl)cc43)S2)nc1C ?
Given back: 62.5

Asked: So what does the record say about GI50 for CCOC(=O)c1sc(/N=C2\NC(=O)/C(=C3/C(=O)Nc4ccccc43)S2)nc1C ?
Given back: 125

----------
# System: Staphylococcus aureus
# PROTOCOL_DESCRIPTION: Antibacterial activity against Staphylococcus aureus RCMB 010028 after 24 hrs by serial dilution method
# Assay type: functional
# RUN_PARAMETERS: RCMB 010028, 24 h
Each entry below lists one item and its recorded MIC value.
Note: unit µg/mL is implicit; provide only the numeric part.

Known results for molecules:
COMPOUND | UNIT_STRING | MIC
CCOC(=O)c1sc(/N=C2\NC(=O)/C(=C3/C(=O)Nc4ccc(Cl)cc43)S2)nc1C | µg/mL | 0.98
CCOC(=O)c1sc(/N=C2\NC(=O)/C(=C3/C(=O)N(C)c4ccccc43)S2)nc1C | µg/mL | 1.95
CC(=O)c1sc(/N=C2\NC(=O)/C(=C3/C(=O)N(C)c4ccccc43)S2)nc1C | µg/mL | 0.98
CCOC(=O)c1sc(/N=C2\NC(=O)/C(=C/c3c[nH]c4ccccc34)S2)nc1C | µg/mL | 3.9

Asked: // fetch Staphylococcus aureus MIC for CCOC(=O)c1sc(/N=C2\NC(=O)/C(=C3/C(=O)Nc4ccc(F)cc43)S2)nc1C
Given back: 3.9

Asked: // fetch Staphylococcus aureus MIC for CC(=O)c1sc(/N=C2\NC(=O)/C(=C/c3cn(Cc4ccccc4)c4ccccc34)S2)nc1C
Given back: 1.95

Asked: // fetch Staphylococcus aureus MIC for CC(=O)c1sc(/N=C2\NC(=O)/C(=C3/C(=O)Nc4ccccc43)S2)nc1C
Given back: 3.9

Asked: // fetch Staphylococcus aureus MIC for CCOC(=O)c1sc(/N=C2\NC(=O)/C(=C3/C(=O)Nc4ccc(OC)cc43)S2)nc1C
Given back: 0.98

Asked: // fetch Staphylococcus aureus MIC for O=C(O)c1cn(C2CC2)c2cc(N3CCNCC3)c(F)cc2c1=O
Given back: 1.95

Asked: // fetch Staphylococcus aureus MIC for COc1ccc2c(c1)/C(=C1/S/C(=N/c3nc(C)c(C(C)=O)s3)NC1=O)C(=O)N2
Given back: 1.95

Asked: // fetch Staphylococcus aureus MIC for CCOC(=O)c1sc(/N=C2\NC(=O)/C(=C3/C(=O)N(Cc4ccccc4)c4ccccc43)S2)nc1C
Given back: 1.95

----------
# PROTOCOL_DESCRIPTION: Cytotoxicity against mouse RAW264.7 cells
# Type: cell-based
Each entry below lists one item and its recorded GI50 value.

Known results for molecules:
COMPOUND | TEST_READOUT | RECORDED_RESULT
CCOC(=O)c1sc(/N=C2\NC(=O)/C(=C3/C(=O)Nc4ccc(OC)cc43)S2)nc1C | GI50 | > 62.5 µg/mL
CCOC(=O)c1sc(/N=C2\NC(=O)/C(=C3/C(=O)Nc4ccc(Cl)cc43)S2)nc1C | GI50 | > 125 µg/mL

Consider the record given below.
Asked: So what does the record say about GI50 for CC(=O)c1sc(/N=C2\NC(=O)/C(=C3/C(=O)N(C)c4ccccc43)S2)nc1C ?
Given back: > 250 µg/mL
